test: PBPK model virtual trials matched to the observed studies (model verification, nonobese vs obese); design: species or system human; settings: nonobese individuals
The label is label 1 for Cτ, Ratio Predicted/Observed, Nonobese below 1 and label 0 for Cτ, Ratio Predicted/Observed, Nonobese equal to or exceeding 1.

[
  {
    "STRUCTURE_STRING": "Cc1cc(/C=C/C#N)cc(C)c1Nc1ccnc(Nc2ccc(C#N)cc2)n1",
    "CLASS_ASSIGNMENT": "label 1"
  },
  {
    "STRUCTURE_STRING": "Cn1c(Cn2ccc(C(F)(F)F)c(Oc3cc(Cl)cc(C#N)c3)c2=O)n[nH]c1=O",
    "CLASS_ASSIGNMENT": "label 1"
  },
  {
    "STRUCTURE_STRING": "C[C@H](Cn1cnc2c(N)ncnc21)OCP(=O)(O)O",
    "CLASS_ASSIGNMENT": "label 0"
  },
  {
    "STRUCTURE_STRING": "Nc1nc(=O)n([C@@H]2CS[C@H](CO)O2)cc1F",
    "CLASS_ASSIGNMENT": "label 0"
  }
]

###

Reported t1/2, Ratio Predicted/Observed, Nonobese is given for each of the following molecules.
test: PBPK model virtual trials matched to the observed studies (model verification, nonobese vs obese); parameters: species or system human; conditions: nonobese individuals

[
  {
    "STRUCTURE_STRING": "C[C@H](Cn1cnc2c(N)ncnc21)OCP(=O)(O)O",
    "t1/2, Ratio Predicted/Observed, Nonobese": 1.15
  },
  {
    "STRUCTURE_STRING": "Cn1c(Cn2ccc(C(F)(F)F)c(Oc3cc(Cl)cc(C#N)c3)c2=O)n[nH]c1=O",
    "t1/2, Ratio Predicted/Observed, Nonobese": 1.03
  },
  {
    "STRUCTURE_STRING": "Cc1cc(/C=C/C#N)cc(C)c1Nc1ccnc(Nc2ccc(C#N)cc2)n1",
    "t1/2, Ratio Predicted/Observed, Nonobese": 0.65
  },
  {
    "STRUCTURE_STRING": "O=C(NCc1c(F)cc(F)cc1F)c1cn2c(c(O)c1=O)C(=O)N1[C@H]3CC[C@H](C3)O[C@@H]1C2",
    "t1/2, Ratio Predicted/Observed, Nonobese": 1.27
  },
  {
    "STRUCTURE_STRING": "Nc1nc(=O)n([C@@H]2CS[C@H](CO)O2)cc1F",
    "t1/2, Ratio Predicted/Observed, Nonobese": 1.86
  }
]

###

# Cτ, observed, nonobese individuals annotations
assay: Observed pharmacokinetics of antiretrovirals in nonobese and obese individuals (SHCS therapeutic drug monitoring data and literature studies, noncompartmental analysis); conditions: nonobese (BMI range per drug), standard oral dose at steady state, GM; SHCS TDM data with or without literature data

[
  {
    "STRUCTURE_STRING": "C[C@@H]1CCO[C@H]2Cn3cc(C(=O)NCc4ccc(F)cc4F)c(=O)c(O)c3C(=O)N12",
    "Cτ, observed, nonobese individuals, ng/mL": 889
  },
  {
    "STRUCTURE_STRING": "O=C1Nc2ccc(Cl)cc2[C@@](C#CC2CC2)(C(F)(F)F)O1",
    "Cτ, observed, nonobese individuals, ng/mL": 1751
  },
  {
    "STRUCTURE_STRING": "Cc1nnc(C(=O)NC(C)(C)c2nc(C(=O)NCc3ccc(F)cc3)c(O)c(=O)n2C)o1",
    "Cτ, observed, nonobese individuals, ng/mL": 142
  },
  {
    "STRUCTURE_STRING": "CC(C)c1nc(CN(C)C(=O)N[C@H](C(=O)N[C@@H](Cc2ccccc2)C[C@H](O)[C@H](Cc2ccccc2)NC(=O)OCc2cncs2)C(C)C)cs1",
    "Cτ, observed, nonobese individuals, ng/mL": 91.4
  },
  {
    "STRUCTURE_STRING": "O=C(NCc1c(F)cc(F)cc1F)c1cn2c(c(O)c1=O)C(=O)N1[C@H]3CC[C@H](C3)O[C@@H]1C2",
    "Cτ, observed, nonobese individuals, ng/mL": 2373
  }
]

###

Reported half-life by item:
assay: Observed pharmacokinetics of antiretrovirals in nonobese and obese individuals (SHCS therapeutic drug monitoring data and literature studies, noncompartmental analysis); conditions: human, plasma, po, t1/2, observed, nonobese individuals, nonobese (BMI range per drug), standard oral dose at steady state, GM; SHCS TDM data with or without literature data

[
  {
    "STRUCTURE_STRING": "C[C@@H]1CCO[C@H]2Cn3cc(C(=O)NCc4ccc(F)cc4F)c(=O)c(O)c3C(=O)N12",
    "half-life [h]": 12.6
  },
  {
    "STRUCTURE_STRING": "CC(C)c1nc(CN(C)C(=O)N[C@H](C(=O)N[C@@H](Cc2ccccc2)C[C@H](O)[C@H](Cc2ccccc2)NC(=O)OCc2cncs2)C(C)C)cs1",
    "half-life [h]": 5.4
  },
  {
    "STRUCTURE_STRING": "O=C1Nc2ccc(Cl)cc2[C@@](C#CC2CC2)(C(F)(F)F)O1",
    "half-life [h]": 20.2
  },
  {
    "STRUCTURE_STRING": "O=C(NCc1c(F)cc(F)cc1F)c1cn2c(c(O)c1=O)C(=O)N1[C@H]3CC[C@H](C3)O[C@@H]1C2",
    "half-life [h]": 20.6
  }
]
